Tested on: Lolium multiflorum
Assay: Further glasshouse test versus other ACCase-inhibiting herbicides, Table B2-1
Type: in vivo
Details: biotype I1781L; 30 g/ha; 21 days after application
Text: Further tests were employed to test the efficacy of a compound of Formula I versus other ACCase-inhibiting herbicides. The five main targets were Lolium multiflorum, Eleusine indica, Digitaria insularis, Sorghum halepense and Echinochloa crus-galli. Collectively, the populations contained all the major target-site resistance mutations affecting ACCase herbicides. […]
valueKind: visual damage
Phrase the answer as number then unit, nothing more needed.

Q: visual damage of CC#Cc1ccc(C2=C(OC(=O)OC)C3CCC(C3)C2=O)c(OC)c1 (centres unmarked) on Lolium multiflorum?
Ans: 100%

Q: Follow-up item: CCCC(=NOCC)C1=C(O)CC(C2CCCSC2)CC1=O (centres unmarked)
Ans: 0%

Q: Follow-up item: CCc1cc(C)cc(CC)c1-c1c(OC(=O)C(C)(C)C)n2n(c1=O)CCOCC2
Ans: 7%

Q: Follow-up item: C#CCOC(=O)[C@@H](C)Oc1ccc(Oc2ncc(Cl)cc2F)cc1
Ans: 7%

Q: Follow-up item: CCSC(C)CC1CC(=O)C(/C(CC)=N/OC/C=C/Cl)=C(O)C1 (centres unmarked)
Ans: 53%

====

Tested on: Lolium multiflorum
Test: Further glasshouse test versus other ACCase-inhibiting herbicides, Table B2-1
Type: in vivo
Conditions: biotype D2078G; 120 g/ha; 21 days after application
For each entry below, report its visual damage value.
Respond numerically; units are % and should not be typed.

Q: Requested field: visual damage. Item: CCc1cc(C)cc(CC)c1-c1c(OC(=O)C(C)(C)C)n2n(c1=O)CCOCC2 [Pinoxaden, pinoxaden]
Ans: 45

Q: Follow-up item: CCSC(C)CC1CC(=O)C(/C(CC)=N/OC/C=C/Cl)=C(O)C1 (centres unmarked) [Clethodim, clethodim]
Ans: 70

Q: Follow-up item: C#CCOC(=O)[C@@H](C)Oc1ccc(Oc2ncc(Cl)cc2F)cc1 [Clodinafop-propargyl, clodinafop-propargyl]
Ans: 0

Q: Follow-up item: CC#Cc1ccc(C2=C(OC(=O)OC)C3CCC(C3)C2=O)c(OC)c1 (centres unmarked) [Compound Ic]
Ans: 100

Q: Follow-up item: CCCC(=NOCC)C1=C(O)CC(C2CCCSC2)CC1=O (centres unmarked) [Cycloxydim, cycloxydim]
Ans: 3

// data source = patent US20260215428A1
